Measured cytotoxicity at 10 µM values are reported for all entries that follow.
- test name: Toxicity liver stage against HepG2, at 10uM
- Type: cell-based
- Parameters: test concentration 10 uM, cell line HepG2-A16-CD81EGFP
- assay setup: human, HepG2-A16-CD81EGFP cells; read-out: INHIBITION
Field format: number, assumed %, no unit text.

INSERT INTO results (compound, recorded_number) VALUES
  ('CC(C)n1ccnc1C1CCCN(c2ccccn2)C1 (stereo not drawn)', 1.28),
  ('Cn1cccc1C(O)CNC(=O)c1ccc(C(F)(F)F)cc1 (stereo not drawn)', 2.9),
  ('Cc1ccc(F)c(N2CCCC(NS(=O)(=O)CCCF)C2=O)c1 (stereo not drawn)', -3.14),
  ('CCc1nccn1C1CCCN(C(=O)COCC(F)(F)F)C1 (stereo not drawn)', -9.74),
  ('Cc1ccc([C@]2(O)CC[C@H]3CN(Cc4cc(C)c(O)c(C)c4)C[C@H]32)nc1', -6.72);

Return reported cytotoxicity at 10 µM. Input compound: Cc1ccc(CNCCS(=O)(=O)N2CCOCC2)cc1C
1.41

Return reported cytotoxicity at 10 µM. Input compound: Cc1ccc(CN(C)C(=O)CN2CCOC(Cn3cccn3)C2)o1 (stereo not drawn)
-0.906

Return reported cytotoxicity at 10 µM. Input compound: CS(=O)(=O)N1CCC(Oc2ccc(C(=O)N3CCSCC3)cc2Cl)CC1
16.2

Return reported cytotoxicity at 10 µM. Input compound: Cc1cnc(C(=O)NCc2ccnc(N(C)C)c2)cn1
-1.07

Return reported cytotoxicity at 10 µM. Input compound: CC(=O)N1CCCC1c1ccc(Br)cn1 (stereo not drawn)
4.29

Return reported cytotoxicity at 10 µM. Input compound: Cc1ccc(NC2CCN(C(=O)CCc3ccsc3)CC2)nn1
4.3

Return reported cytotoxicity at 10 µM. Input compound: O=C(COC1CCCCC1)N1CCCC(n2ccnc2)C1 (stereo not drawn)
-19.7

Return reported cytotoxicity at 10 µM. Input compound: COCCCN(CCOC)C(=O)Nc1ccccc1Br
5.86
